Assay: Plasma stability assay
Type: in vitro ADME
Conditions: human plasma, 37 °C, read-out: degradation half-life (t1/2)
Where a SMILES comes first, the peptide text is derived from it. Bridges are numbered along the chain shown (N, C = ends). Triazole bridges read from a SMILES are 1,4-linked. [ ]: non-standard residue; d: D form. dDap(N3) = [N-]=[N+]=NC[C@@H](N)C(=O)O; dPra = C#CC[C@@H](N)C(=O)O
metric: half-life at 5 μM

Query string: Request the reported half-life at 5 μM associated with NC(=O)[C@H]1Cc2cn(nn2)C[C@@H](NC(=O)[C@@H](N)Cc2ccc(O)cc2)C(=O)NCC(=O)N[C@@H](Cc2ccccc2)C(=O)N1 [NOVA2, H-Tyr-c[DAza-Gly-Phe-DPra]-NH2 triazole] (H-Y[dDap(N3)]GF[dPra]-NH2; triazole 2-5)
Result string: > 4 h
